Source listed as patent US20200095340A1.

Each record here notes measured Kd.
- STUDY_SYSTEM: biotinylated human DLL3 protein expressed as a human IgG1 fusion protein (human) (UniProt Q9NYJ7)
- Sequence (Q9NYJ7 other isoform, or with tags, fused parts or gaps): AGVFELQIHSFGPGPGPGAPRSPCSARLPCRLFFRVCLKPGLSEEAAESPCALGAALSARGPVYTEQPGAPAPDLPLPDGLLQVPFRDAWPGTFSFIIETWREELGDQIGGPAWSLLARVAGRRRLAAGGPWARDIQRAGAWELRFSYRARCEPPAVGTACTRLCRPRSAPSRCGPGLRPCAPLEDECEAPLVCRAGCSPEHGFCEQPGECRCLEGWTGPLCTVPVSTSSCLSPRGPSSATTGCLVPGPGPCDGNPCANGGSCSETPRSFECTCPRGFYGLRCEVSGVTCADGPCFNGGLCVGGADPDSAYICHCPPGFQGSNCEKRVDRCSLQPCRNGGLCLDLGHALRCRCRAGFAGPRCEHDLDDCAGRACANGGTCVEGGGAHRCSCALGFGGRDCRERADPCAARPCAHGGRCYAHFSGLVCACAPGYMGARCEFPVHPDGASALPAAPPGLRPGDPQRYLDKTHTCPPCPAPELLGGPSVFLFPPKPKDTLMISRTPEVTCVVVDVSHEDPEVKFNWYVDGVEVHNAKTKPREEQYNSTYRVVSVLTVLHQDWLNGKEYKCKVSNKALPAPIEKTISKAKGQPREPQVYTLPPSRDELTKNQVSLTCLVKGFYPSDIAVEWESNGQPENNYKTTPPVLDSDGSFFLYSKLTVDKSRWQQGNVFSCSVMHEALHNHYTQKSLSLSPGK
- EXPERIMENT_DESCRIPTION: Octet BLI; biotinylated huDLL3-IgG1 fusion on streptavidin tips; single 50 nM; conditioned medium
All answers are understood in nM, so give the number only.

Query: Kd; subject: anti-DLL3 trispecific protein 2B07 (protein, part only; not given: CD3 fragment and albumin sdAb, part only) chain, part: EVQLVESGGGLVQPGGSLTLSCVASGSTSSINAFGWYRRAPGKQRELVAGISSDGSKVYADSVKGRFTISRDNAKNSVYLQMNSLRAEDTAVYYCYYFRTVRGSSMRYWGQGTLVTVSSGGGGSGGGSGGGGSGGGSHHHHHH
5.7

Query: Kd; subject: anti-DLL3 trispecific protein 3H06 (protein, part only; not given: anti-CD3 and anti-albumin domains, part only) chain, part: EVQLVESGGGLVQPGGSLTLSCAASGSSVSQLSMAWYRQAPGKKRELVAGISADGSTDYFDSVKGRFTISRDNAKNSVYLQMNSLRAEDTAVYYCYAYRWTTRGTYWGQGTLVTVSSGGGGSGGGSGGGGSGGGSHHHHHH
8

Query: Kd; subject: anti-DLL3 trispecific protein 2F03 (protein, part only; not given: anti-CD3 fragment and anti-albumin sdAb, part only) chain, part: EVQLVESGGGLVQPGGSLTLSCVASGSTSSINAMAWYRRAPGKQRELAAGISSDNSKVYADSVKGRFTISRDNAKNSVYLQMNSLRAEDTAVYYCYYFRTVGGSSMRYWGQGTLVTVSSGGGGSGGGSGGGGSGGGSHHHHHH
5.9

Query: Kd; subject: anti-DLL3 trispecific protein 1E09 (protein, part only; not given: CD3 fragment and albumin sdAb, part only) chain, part: EVQLVESGGGLVQPGGSLTLSCVASGSTSSINAMAWYRRAPGKQRELVAGISSDGSKVYTDSVKGRFTISRDNAKNSVYLQMNSLRAEDTAVYYCYYFRTRSGSSMRYWGQGTLVTVSSGGGGSGGGSGGGGSGGGSHHHHHH
4.4

Query: Kd; subject: anti-DLL3 trispecific protein 2B012 (protein, part only; not given: anti-CD3 and anti-albumin domains, part only) chain, part: EVQLVESGGGLVQPGGSLTLSCVASGTTSSINAMGWYRRAPGKQRELVAGISSDGSKVYNDSVKGRFTISRDNAKNSVYLQMNSLRAEDTAVYYCYYFRTVRGSSMRYWGQGTLVTVSSGGGGSGGGSGGGGSGGGSHHHHHH
7.3
